target: Vascular endothelial growth factor receptor 2 (Homo sapiens); experiment: Inhibition of VEGF stimulated phosphorylation of KDR on tyrosine residues in human kidney cells expressing vascular endothelial growth factor receptor 2; format: cell-based
Sequence (P35968 whole entry): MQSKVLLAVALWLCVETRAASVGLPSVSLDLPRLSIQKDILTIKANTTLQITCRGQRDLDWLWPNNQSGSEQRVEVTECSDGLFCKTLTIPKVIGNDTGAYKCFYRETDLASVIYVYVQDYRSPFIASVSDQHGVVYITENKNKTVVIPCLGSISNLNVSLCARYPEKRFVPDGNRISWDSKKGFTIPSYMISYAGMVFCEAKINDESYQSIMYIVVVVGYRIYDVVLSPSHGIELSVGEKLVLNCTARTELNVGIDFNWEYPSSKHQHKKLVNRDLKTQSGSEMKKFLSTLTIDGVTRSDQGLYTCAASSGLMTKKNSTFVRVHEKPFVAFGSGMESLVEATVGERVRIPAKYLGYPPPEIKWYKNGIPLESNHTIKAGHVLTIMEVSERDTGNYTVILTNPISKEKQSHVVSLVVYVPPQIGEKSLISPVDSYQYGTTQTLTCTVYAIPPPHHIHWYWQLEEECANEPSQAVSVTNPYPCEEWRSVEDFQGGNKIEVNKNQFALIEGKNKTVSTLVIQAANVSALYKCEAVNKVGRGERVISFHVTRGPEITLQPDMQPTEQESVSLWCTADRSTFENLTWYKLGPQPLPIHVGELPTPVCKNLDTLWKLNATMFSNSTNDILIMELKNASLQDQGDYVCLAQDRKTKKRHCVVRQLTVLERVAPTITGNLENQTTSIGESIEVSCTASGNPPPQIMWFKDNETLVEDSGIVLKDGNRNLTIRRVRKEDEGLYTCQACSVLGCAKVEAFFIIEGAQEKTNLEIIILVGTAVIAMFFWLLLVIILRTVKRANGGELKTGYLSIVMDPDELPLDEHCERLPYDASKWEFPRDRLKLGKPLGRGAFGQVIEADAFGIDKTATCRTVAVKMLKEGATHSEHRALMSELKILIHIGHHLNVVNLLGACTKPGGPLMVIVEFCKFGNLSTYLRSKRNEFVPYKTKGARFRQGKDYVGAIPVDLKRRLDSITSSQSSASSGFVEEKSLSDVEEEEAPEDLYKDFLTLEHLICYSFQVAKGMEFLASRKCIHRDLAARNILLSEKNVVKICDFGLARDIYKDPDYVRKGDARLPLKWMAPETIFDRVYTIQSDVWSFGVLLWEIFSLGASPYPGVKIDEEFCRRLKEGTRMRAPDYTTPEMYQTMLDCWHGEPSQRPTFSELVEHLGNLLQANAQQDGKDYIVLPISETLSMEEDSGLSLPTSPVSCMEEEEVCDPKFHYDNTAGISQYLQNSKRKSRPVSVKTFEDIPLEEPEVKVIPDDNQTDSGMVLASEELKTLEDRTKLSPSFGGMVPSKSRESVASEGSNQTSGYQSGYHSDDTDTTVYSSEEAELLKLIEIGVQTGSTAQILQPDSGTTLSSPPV
pIC50 for assorted compounds
Note on units: pIC50 is unitless, being -log10 of a concentration expressed in mol/L.

COMPOUND | pIC50
CC(=O)N1CCN(Cc2ccc(-c3ccn4c(-c5ccccc5)cnc4c3)cc2)CC1 | 7.11
CN(C)CC1CCCN(CCCn2ccc(-c3ccn4c(-c5ccccc5)cnc4c3)cc2=O)C1 (stereo not given) | 7.17
COc1cccc(-c2cnc3cc(-c4ccccc4)ccn23)n1 | 6.62
COCCN(C)CCCn1ccc(-c2ccn3c(-c4ccccc4)cnc3c2)cc1=O | 7.02

Data request: Param readout = pIC50; param system = Vascular endothelial growth factor receptor 2 (Homo sapiens); param query = c1ccc(-c2ccn3c(-c4ccccc4)cnc3c2)cc1 ; response: value
Data returned: 7.01

Cited source for all entries: ChEMBL document CHEMBL1146681
